Each recorded value in this set is attributed to the antibiotic and cytotoxicity screens of Wong et al. (2023).

- Test system: HepG2
- Assay Info: cytotoxicity call (relative viability < 0.9)
- Run Parameters: 10 µM
The campaign covered roughly 39,000 compounds. About 3,300 (8.5%) were called active. Only a selection was taken, and actives are over-represented in it overall.
In this exercise, the only acceptable responses are class 1 = active, class 0 = inactive

Q. Recorded test call requested for C[C@H]1CCCCO[C@H](CN(C)C(=O)Nc2cccc3ccccc23)[C@@H](C)CN([C@@H](C)CO)C(=O)c2cc(NC(=O)NC3CCCCC3)ccc2O1
A. class 0

Q. Please state the recorded outcome for this molecule: Cc1ccc(N2C(=O)c3ccccc3[C@](C)(C(=O)NCCN3CCOCC3)[C@@H]2c2ccc(CO)cc2)nc1
A. class 0

Q. Please let me know the test result on file for O=C(C[C@@H]1CC[C@H]2[C@@H](COC[C@@H](O)CN2C(=O)c2ccncc2)O1)NC1CCC1 .
A. class 0

Q. Assay result, entry C[C@H](CO)N1C[C@H](C)[C@H](CN(C)C(=O)Nc2cccc3ccccc23)OCCCC[C@H](C)Oc2ccc(NC(=O)NC3CCCCC3)cc2C1=O — outcome?
A. class 1

Q. Hi, sorry to bother you, what did the test record for COc1ccc(S(=O)(=O)Nc2ccc3c(c2)C(=O)N([C@H](C)CO)C[C@@H](C)[C@@H](CN(C)S(=O)(=O)c2ccc(OC)cc2)O3)cc1 ?
A. class 0

Q. Per the records of this test, what outcome belongs to OCCn1cncn1 ?
A. class 0

Q. Check the results log: what was the call for C[C@H](CO)N1C[C@H](C)[C@@H](CN(C)C(=O)Nc2ccc3c(c2)OCO3)OCCCC[C@H](C)Oc2ccc(NS(=O)(=O)c3ccc(Cl)cc3)cc2C1=O ?
A. class 0
